# assay_remarks: PPC-1 cell viability loss under TRAIL – PPC-1 cells, ATPLite luminescence, uHTS, TRAIL potentiator project, primary screen (AID 1443);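 further: plate controls were cells with TRAIL plus DMSO for no effect and medium-only wells lacking cells for full effect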
# assay_setup: PPC-1 cells + TRAIL, stronger effect = higher value; at 4 µM unless noted
Among all 220,000 compounds or so, about 880 (0.4%) were called active. For the sample, actives were picked, then their nearest neighbours and some compounds at random.

# molecule, cell killing (% activity)
data = [
    ("CC(C)n1cnc2c(Nc3cccc(Cl)c3)nc(N(CCO)CCCO)nc21", "8.8% (inactive)"),
    ("CC(=O)c1ccc(NC(=O)C2CC(=O)Nc3nc4ccccc4n32)cc1 (configuration not stated)", "27.4% (inactive)"),
    ("O=c1c2ccccc2cnn1Cc1n[nH]c(=S)n1-c1ccccc1F", "17.1% (inactive)"),
    ("OCCCNc1nccc(-c2cc(Nc3cccc(Cl)c3)ncn2)n1", "80.9% (active)"),
    ("Cc1nc(-c2ccc(Cl)cc2)sc1C(=O)NN", "59.4% [at 5 µM] (active)"),
    ("O=C(O)COCC(=O)NCc1csc2ccc(Cl)cc12", "6.2% (inactive)"),
    ("NS(=O)(=O)c1cccnc1Nc1cccc(Cl)c1", "23% (inactive)"),
    ("CC(C)CNC(=S)Nc1ccc(F)cc1", "31.5% (inactive)"),
    ("COc1ccc(C(=O)/C=C/Nc2ccccn2)cc1", "74.5% [at 5 µM] (active)"),
    ("COc1cccc(C(=O)n2ccc(-c3cccs3)n2)c1", "-11.4% (inactive)"),
    ("COc1ccc(CCNCC(O)Cn2ccc3ccccc32)cc1OC (configuration not stated)", "-2.7% (inactive)"),
    ("CC(=O)NC1C(Oc2ccc(C)cc2)OC2COC(c3ccco3)OC2C1O (configuration not stated)", "2.4% (inactive)"),
]

###

# assay_remarks: PPC-1 cell viability loss under TRAIL – PPC-1 cells, ATPLite luminescence, uHTS, TRAIL potentiator project, primary screen (AID 1443);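 further: plate controls were cells with TRAIL plus DMSO for no effect and medium-only wells lacking cells for full effect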
# assay_setup: PPC-1 cells + TRAIL, stronger effect = higher value; at 4 µM unless noted
Among all 220,000 compounds or so, about 880 (0.4%) were called active. The entries come from a sample that favours actives as a whole.
result_type: cell killing (% activity) (%)

# compound, result_type, result
records = [
    ("Cn1c(CC2Sc3ccccc3NC2=O)nnc1SCC(=O)c1ccc(Cl)cc1 (configuration not stated)", "cell killing (% activity)", 5.2),
    ("CCOc1cccc(/C=C/c2ccc3ccccc3n2)c1OC(C)=O", "cell killing (% activity)", 49.3),
    ("CCCCCCCNc1nc(Cl)nc(NCCO)n1", "cell killing (% activity)", 17.1),
    ("Cc1cc(=O)oc2c(C(=O)c3ccccc3)c(OCC(N)=O)ccc12", "cell killing (% activity)", 6.8),
    ("O=S(=O)(NCC1CCCO1)c1cnc(Cl)c(Cl)c1 (configuration not stated)", "cell killing (% activity)", -24.2),
    ("COc1ccc(-c2noc(-c3cccc(OC)c3OC)n2)cc1OC", "cell killing (% activity)", 18.8),
    ("Cc1cc(C)c2nc(NC(=O)c3ccc4c(c3)OCO4)sc2c1", "cell killing (% activity)", 4.5),
    ("COc1ccc(-c2noc(-c3ccc(C)cc3)n2)cc1", "cell killing (% activity)", 25.4),
    ("CN1C(=O)/C(=C/C=C2\\SCCN2C)OC1=S", "cell killing (% activity)", 7.1),
    ("CCOC(=O)c1sc2nc(C)nc(Nc3ccc(OC)c(OC)c3)c2c1C", "cell killing (% activity)", -11.6),
    ("CC1CC(=S)Nc2ccccc2N1Cc1ccccc1 (configuration not stated)", "cell killing (% activity)", 16),
    ("NC(=O)COC(=O)/C=C/c1ccc2ccccc2n1", "cell killing (% activity)", 14.6),
]
